studyTarget: Cytochrome P450 2D6 (Homo sapiens)
procedureDetails: Cytochrome P450 family 2 subfamily D member 6 (CYP2D6) small molecule antagonists: luciferase biochemical (cell-free) qHTS assay (AID 1645840); further: nearly all actives have a fitted effect of over 55% in size
conditionParameters: P450-Glo CYP2D6 enzyme, luciferin luminescence, 1 h; series mostly up to 57.4 µM
Inconclusive results are not listed. Activity calls are given as the source filed them. The call rests on the fitted dose curve; in most records, active means well fitted inhibition curve with a large enough effect in the repeat runs; inconclusive means weak or mixed curves; inactive means flat fitted curve, though single readings scatter.
Outcome codes: active, inactive

>  <compound>
C#C[C@]1(OC(C)=O)CC[C@H]2[C@@H]3CCC4=C/C(=N/O)CC[C@@H]4[C@H]3CC[C@@]21CC

>  <label>
active

$$$$
>  <compound>
CN(C)C(=O)Nc1ccc(Cl)c(Cl)c1

>  <label>
inactive

$$$$
>  <compound>
C[N+]1(CC2COC(c3ccccc3)(C3CCCCC3)O2)CCCCC1 (stereo not given)

>  <label>
active

$$$$
>  <compound>
CC(C(=O)O)c1cccc(Oc2ccccc2)c1 (stereo not given)

>  <label>
inactive

$$$$
>  <compound>
CN1CCN(C2=Nc3ccccc3Sc3ccc(Cl)cc32)CC1

>  <label>
active

$$$$
>  <compound>
Cc1nc(-c2ccc(Cl)cc2)oc1COC(C)(C)C(=O)O

>  <label>
inactive

$$$$
>  <compound>
N#C/C(=C1\SCC(c2ccccc2Cl)S1)n1ccnc1 (stereo not given)

>  <label>
active

$$$$
>  <compound>
CCCCCCCCOc1ccc(C(=O)c2ccccc2)c(O)c1

>  <label>
inactive

$$$$
>  <compound>
Oc1ccc(Cl)cc1Cc1cc(Cl)ccc1O

>  <label>
active

$$$$
>  <compound>
FC1(F)C(F)(F)C(F)(F)C2(F)C(F)(F)C(F)(F)C(F)(F)C(F)(F)C2(F)C1(F)F (stereo not given)

>  <label>
inactive

$$$$
>  <compound>
CC(C)n1c(/C=C/[C@@H](O)C[C@@H](O)CC(=O)O)c(-c2ccc(F)cc2)c2ccccc21

>  <label>
inactive

$$$$
>  <compound>
CCOC(=O)C(C#N)=C(c1ccccc1)c1ccccc1

>  <label>
inactive

$$$$
>  <compound>
O=C1C(O)=C(O)C(=O)C(O)=C1O

>  <label>
inactive

$$$$
>  <compound>
CCN(CC)CCNC(=O)COc1ccc(OC)cc1

>  <label>
active

$$$$
>  <compound>
O=C(NC1CCN(CCc2c[nH]c3ccccc23)CC1)c1ccccc1

>  <label>
active

$$$$

###

procedureDetails: qHTS of pediatric cancer cell lines to identify multiple opportunities for drug repurposing: Primary screen for OHS-50 cells (AID 1347103); further: nearly all actives have a fitted effect of over 40% in size
conditionParameters: OHS-50 osteosarcoma viability, CellTiter-Glo luminescence, 48 h; series mostly up to 57.3 µM
Description: Drug repurposing or repositioning has been offered as a strategy for drug development in oncology programs. […] [1] Shen, M et al. Quantitative high-throughput phenotypic screening of pediatric cancer cell lines identifies multiple opportunities for drug repurposing. […] Cells were assayed in growth media at a density of 500-1,000 cells/well. […] After a 15 min incubation at room temperature, samples were analyzed for luminescence intensity using a ViewLux High-throughput CCD imager equipped with clear filters.
Inconclusive results are not listed. Active and inactive are the calls of the source. The call rests on the fitted dose curve; in most records, active means well fitted cell-killing curve with a large enough effect; inconclusive means small, poorly fitted or top-dose-only effect; inactive means no such curve, though single readings can be large or run the other way.
Outcome codes: yes for active, no for inactive

>  <compound>
COc1cc(C(=O)N2CCCCCCC2)cc(OC)c1OC

>  <label>
no

$$$$
>  <compound>
NC1CCN(c2nc3c(cc2F)c(=O)c(C(=O)O)cn3-c2ccc(F)cc2F)C1 (stereo unspecified)

>  <label>
no

$$$$
>  <compound>
COc1ccc2c(c1)c1c3n2CCN(C)C3=NCC1

>  <label>
no

$$$$
>  <compound>
CN(C)C(=O)Nc1ccc(Cl)c(Cl)c1

>  <label>
no

$$$$
>  <compound>
C[C@]12CCC(=O)C=C1C=C[C@@H]1[C@@H]2CC[C@@]2(C)[C@H]1CC[C@@]21CCC(=O)O1

>  <label>
yes

$$$$
>  <compound>
Cn1c(=O)c2[nH]c(Br)nc2n(C)c1=O

>  <label>
no

$$$$

###

Known max response of a selection of molecules
procedureDetails: qHTS Assay for Identifying Gametocytocidal Compounds (AID 743244);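 further: on the % scale 0 is the no-effect control and ±100 the full control effect; actives lower the fluorescent signal which means gametocytes are killed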
conditionParameters: P. falciparum 3D7 stage III-V gametocytes, alamarBlue, 72 h; active compounds read low
Records with an inconclusive call do not appear. Active and inactive are the calls of the source. The call rests on the fitted dose curve; in most records, active means well fitted curve in the direction sought with a large enough effect; inconclusive means small, poorly fitted or top-dose-only effect, or another doubt; inactive means no such curve, though single readings can be large or run the other way.
quantityKind: max response

>  <smilesStr>
CC[C@H](c1ccc(O)cc1)[C@@H](CC)c1ccc(O)cc1

>  <measValue>
11.9% (inactive)

$$$$
>  <smilesStr>
CN1CCN(C2=Nc3cc(F)ccc3Cc3ccccc32)CC1

>  <measValue>
29% (inactive)

$$$$
>  <smilesStr>
O=c1[nH]c(=O)n([C@H]2C[C@H](O)[C@@H](CO)O2)cc1F

>  <measValue>
4.58% (inactive)

$$$$
>  <smilesStr>
CCCCCCCCOc1ccc(C(=O)c2ccccc2)c(O)c1

>  <measValue>
-5.25% (inactive)

$$$$

###

Test system: PC49
procedureDetails: qHTS profiling for inhibitors of Plasmodium falciparum proliferation (AID 504749); further: nearly all actives have a fitted effect of over 60% in size
conditionParameters: P. falciparum in erythrocytes, SYBR Green DNA, 72 h; series mostly up to 28.7 µM
Inconclusive results are not listed. Activity calls are given as the source filed them. Calls follow the shape of the dose curve; as a rule, active = well fitted inhibition curve with a large enough effect; inconclusive = small, poorly fitted or top-dose-only effect; inactive = flat fitted curve, though single readings scatter.
Labels: 1.0 = active, 0.0 = inactive

>  <compound>
FC(F)(F)C(F)(F)C(F)(F)C(F)(F)C(F)(F)C(F)(F)C(F)(F)C(F)(F)Br

>  <label>
0.0

$$$$
>  <compound>
C#C[C@]1(O)CC[C@H]2[C@@H]3CCC4=Cc5oncc5C[C@]4(C)[C@H]3CC[C@@]21C

>  <label>
0.0

$$$$
>  <compound>
O=C(O)Cc1csc(-c2ccc(Cl)cc2)n1

>  <label>
0.0

$$$$
>  <compound>
FC1(F)C(F)(F)C(F)(F)C2(F)C(F)(F)C(F)(F)C(F)(F)C(F)(F)C2(F)C1(F)F (stereo not drawn)

>  <label>
0.0

$$$$
>  <compound>
CCCCCCCCCCCCOCCOCCOCCOCCOCCOCCOCCOCCOCCO

>  <label>
0.0

$$$$
>  <compound>
CCCCCCCCNC(C)C(O)c1ccc(SC(C)C)cc1 (stereo not drawn)

>  <label>
1.0

$$$$
>  <compound>
C#C[C@]1(OC(C)=O)CC[C@H]2[C@@H]3CCC4=C/C(=N/O)CC[C@@H]4[C@H]3CC[C@@]21CC

>  <label>
0.0

$$$$
>  <compound>
c1ccc(-c2nc[nH]c2-c2ccccc2)cc1

>  <label>
0.0

$$$$

###

studyTarget: Cytochrome P450 2C9 (Homo sapiens) (UniProt P11712)
Sequence (P11712 whole entry, looked up): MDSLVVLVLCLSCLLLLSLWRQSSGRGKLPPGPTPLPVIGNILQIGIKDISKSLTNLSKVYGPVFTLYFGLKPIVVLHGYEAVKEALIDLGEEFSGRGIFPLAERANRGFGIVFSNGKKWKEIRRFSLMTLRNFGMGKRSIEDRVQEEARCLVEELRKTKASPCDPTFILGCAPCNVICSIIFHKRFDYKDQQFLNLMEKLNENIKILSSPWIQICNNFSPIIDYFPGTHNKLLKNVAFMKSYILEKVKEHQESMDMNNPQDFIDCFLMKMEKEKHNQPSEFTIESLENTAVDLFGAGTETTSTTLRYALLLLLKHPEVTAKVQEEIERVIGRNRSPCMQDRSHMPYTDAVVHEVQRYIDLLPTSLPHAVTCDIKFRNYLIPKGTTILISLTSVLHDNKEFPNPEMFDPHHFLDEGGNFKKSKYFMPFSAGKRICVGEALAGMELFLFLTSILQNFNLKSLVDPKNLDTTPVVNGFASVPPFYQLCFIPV
procedureDetails: Cytochrome P450 family 2 subfamily C member 9 (CYP2C9) small molecule antagonists: luciferase biochemical (cell-free) qHTS assay (AID 1645842); further: nearly all actives have a fitted effect of over 55% in size
conditionParameters: P450-Glo CYP2C9 enzyme assay, luciferin luminescence; series mostly up to 57.4 µM
Results filed as inconclusive are left out. Activity calls are given as the source filed them. The call rests on the fitted dose curve; in most records, active means well fitted inhibition curve with a large enough effect in the repeat runs; inconclusive means weak or mixed curves; inactive means no such curve, though single readings can be large or run the other way.
Outcome codes: YES (active), NO (inactive)

>  <compound>
CC(=O)Nc1ccc(S(=O)(=O)Nc2ccc([N+](=O)[O-])cc2)cc1

>  <studyTarget>
Cytochrome P450 2C9 (Homo sapiens) (UniProt P11712)

>  <label>
YES

$$$$
>  <compound>
COP(=O)(OC)OC(c1ccc(Cl)cc1)P(=O)(OC)OC (stereo not given)

>  <studyTarget>
Cytochrome P450 2C9 (Homo sapiens) (UniProt P11712)

>  <label>
NO

$$$$
>  <compound>
COc1cc(C(=O)N2CCCCCCC2)cc(OC)c1OC

>  <studyTarget>
Cytochrome P450 2C9 (Homo sapiens) (UniProt P11712)

>  <label>
NO

$$$$
>  <compound>
CCCCCCCC/C=C\CCCCCCCCN

>  <studyTarget>
Cytochrome P450 2C9 (Homo sapiens) (UniProt P11712)

>  <label>
YES

$$$$
>  <compound>
CC(=O)N[C@@H](CCC(=O)O)C(=O)O

>  <studyTarget>
Cytochrome P450 2C9 (Homo sapiens) (UniProt P11712)

>  <label>
NO

$$$$

###

Tested on: DIV30
procedureDetails: qHTS profiling for inhibitors of Plasmodium falciparum proliferation (AID 504749); further: nearly all actives have a fitted effect of over 60% in size
conditionParameters: P. falciparum in erythrocytes, SYBR Green DNA, 72 h; series mostly up to 28.7 µM
Procedure: NIH National Institute of Allergy and Infectious Diseases [NIAID] NIH Chemical Genomics Center [NCGC] […] Because mature erythrocytes lack DNA, only Plasmodium-derived DNA is detected. NCGC Assay Protocol Summary: The SYBR Green viability assay was adapted from a method described previously (Plouffe et al., 2008). […] The following morning, fluorescence intensity at 485(14) nm excitation and 535(25) nm emission wavelengths was measured on an EnVision (Perkin Elmer) plate reader. […]
Inconclusive results are not listed. Calls of active or inactive are those of the source. Calls come from the whole dose curve; as a rule, active = well fitted inhibition curve with a large enough effect; inconclusive = small, poorly fitted or top-dose-only effect; inactive = flat fitted curve, though single readings scatter.
Outcome codes: active, inactive

>  <compound>
CCOc1ccccc1C(N)=O

>  <label>
inactive

$$$$
>  <compound>
COc1ccc(CN(CCN(C)C)c2ncccn2)cc1

>  <label>
inactive

$$$$
>  <compound>
Oc1c(Cl)cc(Cl)c(Cl)c1Cc1c(O)c(Cl)cc(Cl)c1Cl

>  <label>
active

$$$$
>  <compound>
COc1ccc(CCN(C)CCCN2CCc3cc(OC)c(OC)cc3CC2=O)cc1OC

>  <label>
inactive

$$$$
>  <compound>
COc1cc([C@H]2Oc3cc([C@H]4Oc5cc(O)cc(O)c5C(=O)[C@@H]4O)ccc3O[C@@H]2CO)ccc1O

>  <label>
active

$$$$
>  <compound>
O=C1C(O)=C(O)C(=O)C(O)=C1O

>  <label>
inactive

$$$$
>  <compound>
Nc1ccc(S(=O)(=O)Nc2cnc3ccccc3n2)cc1

>  <label>
inactive

$$$$
>  <compound>
Cc1ccccc1OCC(O)CO (stereo unspecified)

>  <label>
inactive

$$$$
>  <compound>
O=C(NCCc1c[nH]c2ccccc12)c1cccnc1

>  <label>
inactive

$$$$
>  <compound>
CC(C)(C)NC[C@H](O)COc1cccc2c1CCCC2=O

>  <label>
inactive

$$$$
>  <compound>
CCOC(=O)c1c(N)sc2c1CCN(Cc1ccccc1)C2

>  <label>
active

$$$$
